experimental_details: NCI Yeast Anticancer Drug Screen. Data for the rad50 strain (AID 155);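 also: 0% = growth of vehicle-only cultures of the same strain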
recorded_conditions: S. cerevisiae rad50 strain growth inhibition; at 50.0 µM; active compounds read high
Description: Growth inhibition of yeast strains with defined genetic alterations is measured as a screen for potential anti-cancer activity. Selected strains with alterations in DNA damage repair or cell cycle control were exposed to compounds and growth inhibition was measured relative to vehicle treated controls. The strain used in this assay is rad50
Compounds without any hit were thinned out: in the full panel of roughly 79,000, 15% have a hit.
reported_property: growth inhibition (%)

COC1/C=C\C=C(/C)C(=O)NC2=CC(=O)C(=O)C(=C2O)CC(C)CC(OC)C(O)C(C)/C=C(\C)C1OC(N)=O (stereo unspecified); 87.5
CC(C)Cc1ncc(CCCN=C(N)N)[nH]c1=O; 82.8
CC1(C)C(O)OC(O)C1(C)C (stereo unspecified); 69
CN(C)CC(CN(C)C)C(=O)/C=C/c1ccc(Cl)cc1Cl; 54.5
CCCCCCCCCCCCCCCCCCNC(=S)/N=C/c1c(O)c2ccccc2[nH]c1=O; 63
CCOC(=O)/C(=C\c1cccc(C)c1)C(C)=O; 92.3
O=NC1c2cccc3cccc(c23)C1N=O (stereo unspecified); 97
S=C(NCc1ccccn1)N/N=C/c1ccccn1; 75.5
C[n+]1c(-c2ccc(/C=N/NC(=O)c3ccc(C(=O)N/N=C/c4ccc(-c5cn6ccccc6[n+]5C)cc4)cc3)cc2)cn2ccccc21; 81.2
CCCCCCCCN1COCC(COc2ccccc2C)OC1 (stereo unspecified); 97.3
Cc1c(C(=O)/C=C/c2ccccc2[N+](=O)[O-])[n+](=O)c2ccccc2n1[O-]; 97.5
Nc1cccc(-c2cc[cH-]c2)c1.[Fe+2].c1cc[cH-]c1; 35.5
COc1ccccc1NC(=O)c1ccc(Cl)cc1; 17.6
CC(=O)/C(=C\c1ccc(Cl)c(Cl)c1)C(=O)C(C)CN(C)C (stereo unspecified); 64.4
O=[N+]([O-])c1ccc(C(c2c[nH]c3ccccc23)c2c[nH]c3ccccc23)cc1; 93.2
O=C(/N=N/C(=O)Oc1ccccc1)Oc1ccccc1; 56.4
NC(CCCCCCCCCCCCC(N)C(=O)c1ccccc1)C(=O)c1ccccc1 (stereo unspecified); -5.55
CCCCCCCC/C=C\CCCCCCCCN; 91.2
Nc1cc(Cl)ccc1Nc1ccccc1; 79.2
N#CCC(=O)N/N=C(\c1ccccc1)C(c1ccccc1)C1(O)C(=O)Nc2c(Cl)ccc(Cl)c21 (stereo unspecified); 43.8
COc1ccc(C(C)c2cc3c(cc2OCC(C)=O)OCO3)cc1 (stereo unspecified); -11.3

###

experimental_details: NCI Yeast Anticancer Drug Screen. Data for the bub3 strain (AID 167)
recorded_conditions: S. cerevisiae bub3 mutant strain, at 50.0 µM (retest, dose inferred, filed as 5.0)
Compounds without any hit were thinned out: in the full panel of roughly 79,000, 15% have a hit. Active and inactive are the calls of the source. Rule as the data show it: active = growth inhibition above about 70%; inactive = the rest.
Outcome codes: active, inactive

O=C(/N=N/C(=O)Oc1ccccc1)Oc1ccccc1; inactive
COc1cccc(/C=C2\S/C(=N/Nc3nc(-c4ccc([N+](=O)[O-])cc4)cs3)NC2=O)c1O; active
COC(=O)C1CCCCC1C(=O)Nc1ccccc1 (configuration not stated); inactive
CCC1(O)C(=O)OCc2c1cc1n(c2=O)Cc2cc3c(N)cccc3nc2-1 (configuration not stated); inactive
CCCCS/C(=C(/C#N)C(N)=O)c1cc2c([nH]1)CCCC2; active
CC(CN(C)C)C(=O)/C=C/c1ccc(Cl)c(Cl)c1 (configuration not stated); active
CCCN=Cc1cc(Cc2ccc(O)c(C=NCCC)c2)ccc1O; inactive
O=C1Oc2ccccc2C(=O)/C1=C/N1C(=O)N/C(=C\c2ccccc2Br)C1=O; inactive
CC(C)C(c1ccccc1)c1ccccc1; inactive
C[n+]1c(/C=C/c2ccc(/C=N/NC(=O)c3ccc(C(=O)N/N=C/c4ccc(/C=C/c5cn6ccccc6[n+]5C)cc4)cc3)cc2)cn2ccccc21; inactive
CCC[CH2][Ge]([CH2]CCC)([CH2]CCC)[O]C(=O)C(O)c1ccccc1 (configuration not stated); inactive
c1ccc(-c2cc(C3CO3)c3ccccc3n2)cc1 (configuration not stated); inactive
[N-]=[N+]=NC1(c2ccccc2)C(=O)Nc2ccccc2C1=O (configuration not stated); inactive
COc1cc2c(cc1O)[C@H](C)C(c1ccccc1OC)O2 (some centres not stated); active
O=S(=O)(NC1CCCC(c2ccccc2)C1)c1ccccc1 (configuration not stated); active
O=c1c2ccccc2nc(-c2ccc(Cl)cc2)n1O; active
O=C(O)C(=Cc1ccc(-c2ccccc2)cc1)C(=O)O; inactive
